- Assay System: Membrane-bound ghrelin O-acyltransferase MBOAT4 (Homo sapiens)
- Experimental Protocol: Inhibition of human GOAT expressed in baculovirus infected sf9 insect cell microsomes using biotinylated des-acyl ghrelin and octanoyl-CoA as substrate incubated for 15 mins by HTRF assay
- Parameters: species or system Microsome
Observation Type: IC50

Query Smiles	Observation Type	Result
O=C(O)c1ccc2oc(SCc3ccc(Cl)cc3Cl)nc2c1	IC50	8.6 nM

====

- Assay System: Membrane-bound ghrelin O-acyltransferase MBOAT4 (Homo sapiens)
- Sequence (Q96T53 whole entry): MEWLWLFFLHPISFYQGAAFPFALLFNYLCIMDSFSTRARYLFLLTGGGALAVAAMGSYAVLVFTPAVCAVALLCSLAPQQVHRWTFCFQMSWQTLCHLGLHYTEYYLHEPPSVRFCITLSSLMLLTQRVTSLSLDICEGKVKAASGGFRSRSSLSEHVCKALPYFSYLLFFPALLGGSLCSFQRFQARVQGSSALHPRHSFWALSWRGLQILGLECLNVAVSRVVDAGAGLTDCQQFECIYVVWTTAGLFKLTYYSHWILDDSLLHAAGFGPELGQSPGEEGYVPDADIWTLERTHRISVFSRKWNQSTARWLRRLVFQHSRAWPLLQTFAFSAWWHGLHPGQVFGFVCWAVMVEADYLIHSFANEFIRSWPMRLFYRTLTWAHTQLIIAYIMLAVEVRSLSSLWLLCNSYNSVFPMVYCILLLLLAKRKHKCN
- Experimental Protocol: Inhibition of human His-tagged GOAT expressed in baculovirus infected Sf9 cell membrane using biotinylated ghrelin peptide/octanoyl-CoA/palmitoyl CoA as substrate incubated for 80 mins by TR-FRET assay
- Assay type: cell membranes

Query Smiles	IC50
O=C(O)Cc1csc2cc(O[C@H]3CCc4ncccc43)cc(Cl)c12	< 50 nM

====

- Assay System: Membrane-bound ghrelin O-acyltransferase MBOAT4 (Mus musculus)
- Sequence (P0C7A3 whole entry): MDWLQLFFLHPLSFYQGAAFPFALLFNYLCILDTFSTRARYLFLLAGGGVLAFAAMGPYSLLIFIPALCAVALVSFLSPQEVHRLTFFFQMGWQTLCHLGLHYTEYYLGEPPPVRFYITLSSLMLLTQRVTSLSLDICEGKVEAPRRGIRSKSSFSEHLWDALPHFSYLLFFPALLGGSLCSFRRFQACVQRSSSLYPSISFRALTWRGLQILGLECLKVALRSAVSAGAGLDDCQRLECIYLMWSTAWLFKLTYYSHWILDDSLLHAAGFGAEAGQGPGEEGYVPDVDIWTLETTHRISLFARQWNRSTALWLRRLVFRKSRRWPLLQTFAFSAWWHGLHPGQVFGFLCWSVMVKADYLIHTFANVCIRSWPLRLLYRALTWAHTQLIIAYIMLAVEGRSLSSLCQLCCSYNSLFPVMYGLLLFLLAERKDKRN
- Experimental Protocol: Inhibition of mouse GOAT expressed in baculovirus infected sf9 insect cell microsomes using biotinylated des-acyl ghrelin and octanoyl-CoA -CoA as substrate incubated for 15 mins by HTRF assay
- Set-up: species or system Microsome

Query Smiles	IC50 (nM)
O=C(O)c1ccc2oc(SCc3ccc(Cl)cc3Cl)nc2c1	3.3

Numbers sourced from ChEMBL document CHEMBL4673189.
